- measured on: hT40 (Homo sapiens, UniProt P10636)
- Sequence (P10636 1-441 isoform P10636-8): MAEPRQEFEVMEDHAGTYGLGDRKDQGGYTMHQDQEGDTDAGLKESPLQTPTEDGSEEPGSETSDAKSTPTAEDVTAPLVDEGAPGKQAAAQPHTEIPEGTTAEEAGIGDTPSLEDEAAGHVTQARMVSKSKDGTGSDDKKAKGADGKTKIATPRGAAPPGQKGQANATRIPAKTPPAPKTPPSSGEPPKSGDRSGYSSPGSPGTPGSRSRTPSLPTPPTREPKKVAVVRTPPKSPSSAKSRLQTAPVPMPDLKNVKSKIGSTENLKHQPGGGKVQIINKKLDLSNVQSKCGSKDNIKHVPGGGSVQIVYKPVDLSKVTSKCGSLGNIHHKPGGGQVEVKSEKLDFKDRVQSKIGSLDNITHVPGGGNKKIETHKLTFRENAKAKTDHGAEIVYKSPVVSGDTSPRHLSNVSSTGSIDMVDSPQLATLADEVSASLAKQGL
- test protocol: Biacore X100 SPR, scAb captured via anti-HuCk, hT40 as analyte
- Format: binding
- stated conditions: '3a' and '3b' scAbs, Table 25, hT40
metric name: kd

Input: Given 3aH6: anti-tau clone, SEQ ID NO: 423 (protein, 3aH6 amino acid sequence) scFv: QVQLQESGPSLVKPSQTLSLTCTVSGFSLSSNGVGWVRQAPGKVPEWLGDISSVGKKYANPALKSRLSFTRDTSKSQVSLSLSSVTTEDTAVYYCVKCRDGGVTYGYDIDYWGPGLLVTASSEGKSSGASGESKVDDQAVVTQPSSVSGSLGQSVSITCSGSSGNVGYGDYVSWFQQFHGSAPKLLIYGATNLASGVPARFSGSRSGNTATLTISSLHAEDEADYYCASYDSSSGGVFGSGTRLTVLG , respond with its kd.
Output: 0.009868 s⁻¹
